conditions: in ethyl acetate, 328.15 K
Experimental Readout: solubility (mole fraction)
Just the number, please.

get_value(item= O=C(O)Cc1ccc([N+](=O)[O-])cc1 , readout=solubility (mole fraction)) returns 0.137

====

conditions: in methanol, 318.15 K
Experimental Readout: solubility (mole fraction)
Respond numerically, and do not add a unit to the figure.

The compound O=C(O)Cc1ccc([N+](=O)[O-])cc1 showed solubility (mole fraction) equal to 0.274

====

conditions: in DMAc, 298.15 K
Experimental Readout: solubility (mole fraction)
Just the number, please.

Recorded solubility (mole fraction) (molecule O=C(O)Cc1ccc([N+](=O)[O-])cc1 ): 0.131

====

conditions: in acetonitrile, 283.15 K
Experimental Readout: solubility (mole fraction)
Give only the figure.

molecule O=C(O)Cc1ccc([N+](=O)[O-])cc1 , solubility (mole fraction) observed: 0.0193

====

conditions: in water, 303.15 K
Experimental Readout: solubility (mole fraction)
Form rule: numeric answer, no unit written next to it.

// field: solubility (mole fraction); key: O=C(O)Cc1ccc([N+](=O)[O-])cc1 ; value = 0.000336

====

conditions: in DMF, 288.15 K
Experimental Readout: solubility (mole fraction)
Output: the number by itself.

# solubility (mole fraction) (molecule: O=C(O)Cc1ccc([N+](=O)[O-])cc1 ) is 0.178

====

conditions: in isopropanol, 293.15 K
Experimental Readout: solubility (mole fraction)
Please give only the number in your answer, with no unit.

// sample O=C(O)Cc1ccc([N+](=O)[O-])cc1 , its solubility (mole fraction) was 0.0373

====

settings: in n-propanol, 298.15 K
Experimental Readout: solubility (mole fraction)
Just the number, please, no unit after it.

The measured solubility (mole fraction) associated with O=C(O)Cc1ccc([N+](=O)[O-])cc1 reads 0.0784

====

conditions: in ethylene glycol, 313.15 K
Experimental Readout: solubility (mole fraction)
Number, no unit, nothing else.

Reported solubility (mole fraction) of O=C(O)Cc1ccc([N+](=O)[O-])cc1 : 0.0428

====

settings: in water, 283.15 K
Experimental Readout: solubility (mole fraction)
Please reply with the number alone, leaving off any unit.

Summary for this molecule, O=C(O)Cc1ccc([N+](=O)[O-])cc1 : solubility (mole fraction) is 0.000141

====

conditions: in n-propanol, 303.15 K
Experimental Readout: solubility (mole fraction)
Lab note: jot the number down without any unit.

Lab note: measured solubility (mole fraction) of O=C(O)Cc1ccc([N+](=O)[O-])cc1 was 0.0916

====

details: in DMAc, 318.15 K
Experimental Readout: solubility (mole fraction)
# answer = number (no unit)

Just so you know, measured solubility (mole fraction) for O=C(O)Cc1ccc([N+](=O)[O-])cc1 came out at 0.216

====

conditions: in ethyl acetate, 288.15 K
Experimental Readout: solubility (mole fraction)
The response must contain the number and no unit.

The molecule listed as O=C(O)Cc1ccc([N+](=O)[O-])cc1 shows solubility (mole fraction) equal to 0.0352

====

settings: in DMAc, 308.15 K
Experimental Readout: solubility (mole fraction)
Output: the number by itself.

Lookup result for O=C(O)Cc1ccc([N+](=O)[O-])cc1 ; measured solubility (mole fraction): 0.169

====

conditions: in ethylene glycol, 283.15 K
Experimental Readout: solubility (mole fraction)

Noted for O=C(O)Cc1ccc([N+](=O)[O-])cc1 : its solubility (mole fraction) reads 0.0168
